- Tested on: U2OS
- experiment: Incucyte cell viability with U2OS; also: unitless GR value; below 1 slowed growth and below 0 cell loss
- Type: toxicity, cell-based
- run.parameters: human, 0 h, 10 µM, compound concentration 10 uM, replicate number 2
assay.metric: Growth Rate
Please reply with the value in numeric form only.

Asked: # Growth Rate lookup, item O=C(NCC1(N2CCN(c3ccccc3)CC2)CCOCC1)c1cccnc1Sc1ccccc1
Given back: -0.32

Asked: Find the recorded Growth Rate belonging to C[C@H](CCC(=O)O)[C@H]1CC[C@H]2[C@@H]3[C@H](O)C[C@@H]4C[C@H](O)CC[C@]4(C)[C@H]3C[C@H](O)[C@]12C [CHOLIC ACID] and report it.
Given back: 0.9

Asked: What does the data say about its Growth Rate? Entry: COc1ccc(OC)c(-c2ccc(NC(=O)c3ccncc3F)cc2)c1
Given back: -0.01

Asked: Bench note: what Growth Rate did O=C(NS(=O)(=O)N1CCC1)c1cc(C2CC2)c(OCC23CC4CC(CC(C4)C2)C3)cc1F show?
Given back: -0.98

Asked: Consider the molecule Cc1cccc(F)c1C(=O)Nc1cnc(-c2cc3c(cc2Cl)OC(F)(F)O3)cn1 [ZEGOCRACTIN] and give its measured Growth Rate.
Given back: -0.79

Asked: Any idea what Growth Rate was measured for O=C1Nc2nc(-c3c(O)cccc3OCC3CC3)cc([C@@H]3CCCNC3)c2CO1 ?
Given back: -0.52

Asked: Using the record for CCOC(=O)c1cnn(-c2ccc(NC(=O)C(Cl)=C(Cl)Cl)cc2)c1C(F)(F)F , report its Growth Rate.
Given back: 0.55
